Cited source: patent US20020103123A1

Below is a list of entries, each paired with its recorded Ki value.
- Target Or System: human Y4 receptor (human, UniProt P50391)
- Procedure Details: 125I-PYY displacement, COS-7 membranes
Value Kind: Ki (nM)

- Binder: "TPEQMAQYAADLRRYINMLTRPRY [human PP13-36]"
  Reported Value: 39
- Binder: "APLEPMYPGDYATHEQRAQYETQLRRYINTLTRPRY [rat PP]"
  Reported Value: 0.16
